Please respond with reported protein stability index for every item in the list.
# Test system: Saccharomyces cerevisiae
# assay_text: protein stability index of tFT-peptide fusion (C-terminal peptide) (PSI (0-1 scale)); higher = more stable (slower turnover)
# assay_context: genetic background: wild type; temperature: 30 C
Could you respond with only the numeric value?

### Prompt I have this sequence here, `IKVIACSEPIPG` , and I need its recorded protein stability index.
### Response 0.592

### Prompt Now consider `SLPDTSPSLHPP` and answer again.
### Response 0.59

### Prompt Now consider `IDKVTNTGSRKV` and answer again.
### Response 0.582

### Prompt Now consider `EKRDRKKNPRGS` and answer again.
### Response 0.744

###

Please respond with reported protein stability index for every item in the list.
# System: Saccharomyces cerevisiae;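 note: PSI is a weighted mean of sequencing reads over stability bins, variants kept only with over 10 reads, mCherry proximal and sfGFP distal, peptide attached via GGGS linker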
# assay_text: protein stability index of tFT-peptide fusion (C-terminal peptide) (PSI (0-1 scale)); higher = more stable (slower turnover)
# assay_context: genetic background: wild type; temperature: 30 C
Could you respond with only the numeric value?

### Prompt I have this sequence here, `PFARIIDILLVI` , and I need its recorded protein stability index.
### Response 0.41

### Prompt Now consider `RPPRPPTHSPPP` and answer again.
### Response 0.68

### Prompt Now consider `TTRKMGTRAPSL` and answer again.
### Response 0.647

### Prompt Now consider `VLLRKLLCPGYV` and answer again.
### Response 0.598

### Prompt Now consider `GGWEGLRGLGVG` and answer again.
### Response 0.634

### Prompt Now consider `RNSTDENDCGRK` and answer again.
### Response 0.706

### Prompt Now consider `FAVTRVHLACWG` and answer again.
### Response 0.465

### Prompt Now consider `TWSLYFSCRLFW` and answer again.
### Response 0.54

### Prompt Now consider `WMSFLARVVTFE` and answer again.
### Response 0.716

### Prompt Now consider `DNVVLVRQAAFI` and answer again.
### Response 0.618

### Prompt Now consider `PRLLPSTCEREV` and answer again.
### Response 0.618

### Prompt Now consider `YSIHYLRFFSLF` and answer again.
### Response 0.133

### Prompt Now consider `GTNARGGPINIG` and answer again.
### Response 0.675

### Prompt Now consider `KRYSVPLTTVVD` and answer again.
### Response 0.717

### Prompt Now consider `VIQCIGANGAII` and answer again.
### Response 0.645

### Prompt Now consider `KYPRPNSYFVPI` and answer again.
### Response 0.717

### Prompt Now consider `KKKKIKKKKINI` and answer again.
### Response 0.597

### Prompt Now consider `RGSQLFWSRGYL` and answer again.
### Response 0.707

### Prompt Now consider `KTHKKKKKNKNF` and answer again.
### Response 0.525

### Prompt Now consider `AHWFMPVSCLLV` and answer again.
### Response 0.838

### Prompt Now consider `VFSFLYHVVPVL` and answer again.
### Response 0.441

### Prompt Now consider `TARQNRARPGHP` and answer again.
### Response 0.678

### Prompt Now consider `PLPLFGPRLSPP` and answer again.
### Response 0.875

### Prompt Now consider `PPTLLPPLHPAP` and answer again.
### Response 0.64

### Prompt Now consider `VRRGGGVGGYGI` and answer again.
### Response 0.734

### Prompt Now consider `REREKITRKRNT` and answer again.
### Response 0.69

### Prompt Now consider `GLGLIRTSRLLC` and answer again.
### Response 0.278

### Prompt Now consider `MWFFFICYFLSV` and answer again.
### Response 0.263

### Prompt Now consider `RKEAVTQTQKNT` and answer again.
### Response 0.672

### Prompt Now consider `AAIQNRPIQSNP` and answer again.
### Response 0.672

### Prompt Now consider `VADTLVCRGPMA` and answer again.
### Response 0.718

### Prompt Now consider `CPPRIVRPRGVK` and answer again.
### Response 0.677

### Prompt Now consider `PPLASPDPPLPL` and answer again.
### Response 0.66

### Prompt Now consider `SHKPDLTNVRFV` and answer again.
### Response 0.707

### Prompt Now consider `VLLARVRRSSDS` and answer again.
### Response 0.649

### Prompt Now consider `PRWYVSFRTDDW` and answer again.
### Response 0.709

### Prompt Now consider `RPRQAAAQGGAR` and answer again.
### Response 0.694

### Prompt Now consider `LRFDGKASHSST` and answer again.
### Response 0.681

### Prompt Now consider `QCESVRLNFGGR` and answer again.
### Response 0.704

### Prompt Now consider `GGRRKKRVTPGE` and answer again.
### Response 0.656
